# TEST_PROTOCOL: Lipophilicity, log D of the compound at pH 7.4 by HPLC-MS analysis
# Type: physicochemical
# MEASUREMENT_PARAMETERS: buffer
Each item that follows carries a reported logD.

MOLECULE: CC(=O)c1ccc(NC(=O)CCS)cc1
logD: 1.35

MOLECULE: O=C(CCS)Nc1cccc(C(=O)O)c1
logD: -0.96

MOLECULE: O=C(CCS)Nc1cccc(O)c1
logD: 0.41

MOLECULE: O=C(CCS)Nc1cccc(S(=O)(=O)O)c1
logD: -1.35

MOLECULE: NC(=O)NS(=O)(=O)c1ccc(NC(=O)CCS)cc1
logD: -1.69

MOLECULE: Nc1ccc(NC(=O)CCS)cc1
logD: -0.31

MOLECULE: O=C(O)[C@H]1CCCCN1C(=O)C(CS)Cc1ccccc1 (stereo partly specified)
logD: 0.49

MOLECULE: CS(=O)(=O)Nc1cccc(NC(=O)CCS)c1
logD: 0.62

MOLECULE: NCc1cccc(NC(=O)CCS)c1
logD: 0.28

MOLECULE: O=C(CCS)Nc1ccc(S(=O)(=O)N2CCOCC2)cc1
logD: 1.52

MOLECULE: O=C(CCS)Nc1ccccc1C(=O)O
logD: -0.92

MOLECULE: CN(C)S(=O)(=O)c1ccc(NC(=O)CCS)cc1
logD: 1.7

MOLECULE: O=C(CCS)Nc1ccccc1O
logD: 1.14

MOLECULE: COC(=O)c1ccccc1NC(=O)CCS
logD: 1.95

MOLECULE: O=C(CCS)Nc1ccc(C(=O)O)cc1
logD: -1.65

MOLECULE: O=C(CCS)Nc1cccc([N+](=O)[O-])c1
logD: 2.21

---

Measured IC50 on BlaVIM-1 (Escherichia coli) follows.

ITEM_SMILES: Nc1ccc(NC(=O)CCS)cc1
TARGET_OR_SYSTEM: BlaVIM-1 (Escherichia coli)
IC50 (µM): 0.5
--
ITEM_SMILES: O=C(CCS)Nc1cccc([N+](=O)[O-])c1
TARGET_OR_SYSTEM: BlaVIM-1 (Escherichia coli)
IC50 (µM): 0.1
--
ITEM_SMILES: CN1CCN(Cc2ccc(NC(=O)CCS)cc2)CC1
TARGET_OR_SYSTEM: BlaVIM-1 (Escherichia coli)
IC50 (µM): 1.5
--
ITEM_SMILES: O=C(CCS)Nc1cccc(C(=O)O)c1
TARGET_OR_SYSTEM: BlaVIM-1 (Escherichia coli)
IC50 (µM): 1.2
--
ITEM_SMILES: NCc1cccc(NC(=O)CCS)c1
TARGET_OR_SYSTEM: BlaVIM-1 (Escherichia coli)
IC50 (µM): 1
--
ITEM_SMILES: NC(=O)NS(=O)(=O)c1ccc(NC(=O)CCS)cc1
TARGET_OR_SYSTEM: BlaVIM-1 (Escherichia coli)
IC50 (µM): 2
--
ITEM_SMILES: CS(=O)(=O)Nc1cccc(NC(=O)CCS)c1
TARGET_OR_SYSTEM: BlaVIM-1 (Escherichia coli)
IC50 (µM): 1.3
--
ITEM_SMILES: N=C(N)NS(=O)(=O)c1ccc(NC(=O)CCS)cc1
TARGET_OR_SYSTEM: BlaVIM-1 (Escherichia coli)
IC50 (µM): 0.5
--
ITEM_SMILES: CN(C)S(=O)(=O)c1ccc(NC(=O)CCS)cc1
TARGET_OR_SYSTEM: BlaVIM-1 (Escherichia coli)
IC50 (µM): 0.8
--
ITEM_SMILES: O=C(CCS)Nc1ccc(Cl)c(Cl)c1
TARGET_OR_SYSTEM: BlaVIM-1 (Escherichia coli)
IC50 (µM): 0.1
--
ITEM_SMILES: O=C(CCS)Nc1cccc(S(=O)(=O)O)c1
TARGET_OR_SYSTEM: BlaVIM-1 (Escherichia coli)
IC50 (µM): 1.6
--
ITEM_SMILES: O=C(CCS)Nc1ccccc1C(=O)O
TARGET_OR_SYSTEM: BlaVIM-1 (Escherichia coli)
IC50 (µM): 2.2
